Tested on: HeLa
assay.method.text: Cytotoxicity against human HeLa cells assessed as reduction in cell growth incubated for 72 hrs by MTT assay
Type: functional, cell-based
What IC50 was measured for each of the following?

Value of measured IC50 for the entry COc1cc(CCc2ccc(OC(F)F)c(NC(=O)CN)c2)cc(OC)c1OC : 70 nM

Note to self: IC50 recorded for COc1cc(CCc2ccc(OC(F)F)c(OP(=O)(O)O)c2)cc(OC)c1OC was 110 nM

====

System: EJM
assay.method.text: Antitumor activity against human EJM cells assessed as reduction in cell viability incubated for 24 hrs by CCK-8 assay
Type: functional, cell-based
parameter.measured: pIC50
To interpret pIC50, take it as minus log10 of a concentration measured in moles per litre.

For reference, reported pIC50 for COc1ccc(CCc2cc(OC)c(OC)c(OC)c2)cc1O stands at 7.19

====

Tested on: 143B
assay.method.text: Antiproliferative activity against human 143B cells assessed as inhibition of cell growth measured after 24 hrs by MTT assay
Assay type: functional, cell-based
parameter.measured: IC50 (nM)
Only the number, expressed in nM, is required.

Just so you know, measured IC50 for COc1ccc(CCc2cc(OC)c(OC)c(OC)c2)cc1O came out at 58.2

====

assay.method.text: Antiproliferative activity against human MG-63.3 cells assessed as reduction in cell viability measured for 48 hrs by MTT assay
Format: functional, cell-based
conditions: MG-63.3, 48 h
parameter.measured: IC50 (nM)
Report only the number, with the unit nM understood.

Lab note: measured IC50 of COc1ccc(CCc2cc(OC)c(OC)c(OC)c2)cc1O was 44.3

====

assay.method.text: Half life in Beagle dog at 30 mg/kg, iv measured for 8 to 12 hrs by LC-MS/MS analysis
Format: ADME, organism-based, Canis lupus familiaris
conditions: in vivo, time 8-12 hrs
parameter.measured: half-life (h)
Numeric only. Scale: h

Value of half-life reported for the compound COc1ccc(CCc2cc(OC)c(OC)c(OC)c2)cc1O is 1.6

====

assay.method.text: Oral bioavailability in rat at 10 mg/kg
Format: ADME, organism-based
conditions: in vivo
parameter.measured: bioavailability

compound COc1ccc(CCc2cc(OC)c(OC)c(OC)c2)cc1O , bioavailability observed: 8.7%

====

assay.method.text: Half life in rat at 100 mg/kg, iv
Format: ADME, organism-based
conditions: in vivo
parameter.measured: half-life (h)
Return type: number; implicit unit h.

// half-life lookup, compound = COc1ccc(CCc2cc(OC)c(OC)c(OC)c2)cc1O , result: 3.89

====

assay.method.text: Half life in rat at 50 mg/kg, iv
Type: ADME, organism-based
conditions: in vivo
parameter.measured: half-life (h)
Write it as a number; the unit h goes unstated.

Just so you know, measured half-life for COc1ccc(CCc2cc(OC)c(OC)c(OC)c2)cc1O came out at 3.75

====

Tested on: HCT-116
assay.method.text: Growth inhibition of human HCT-116 cells
Assay type: functional
For each of the compounds below, state its GI50.
I only need the number, in µM, no unit after it.

# GI50 (compound: COc1ccc(C(C)c2cc(C)c(OC)c(OC)c2)cc1OP(=O)(O)O (stereo unspecified) ) is 0.1

Documented GI50 of COc1cc(C(C)c2ccc3c(ccn3C)c2)cc(OC)c1OC (stereo unspecified) : 0.029

So for COc1ccc(C(CC#N)c2cc(OC)c(OC)c(OC)c2)cc1O (stereo unspecified) , the logged GI50 turned out to be 0.05

GET /value?item= COc1ccc(C(C)c2cc(OC)c(OC)c(OC)c2)cc1N (stereo unspecified) &field=GI50 returns 0.06

Kindly note the recorded GI50 for COc1ccc(C(c2cc(OC)c(OC)c(OC)c2)C(F)F)cc1O (stereo unspecified) , which is 0.03

Memo: COc1ccc(C(C)c2cc(OC)c(OC)c(OC)c2)nc1 (stereo unspecified) , reported GI50: 0.06
